B1: Caulobacter ParB omega fusion; a variant is named by its letters at X, in order, B8GW30 (parent)
chain: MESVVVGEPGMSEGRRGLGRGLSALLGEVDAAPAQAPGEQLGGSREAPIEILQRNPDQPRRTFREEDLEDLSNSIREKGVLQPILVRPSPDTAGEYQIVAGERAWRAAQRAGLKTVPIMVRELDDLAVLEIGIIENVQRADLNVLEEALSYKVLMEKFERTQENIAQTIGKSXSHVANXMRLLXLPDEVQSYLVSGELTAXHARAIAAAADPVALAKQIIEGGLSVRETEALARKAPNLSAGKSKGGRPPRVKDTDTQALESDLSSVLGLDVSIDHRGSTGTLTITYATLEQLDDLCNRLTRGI

- Variants of: B1
- experiment description: one-hybrid fitness for binding parS DNA (scaled: cognate 1, non-cognate 0); higher = stronger binding
- run conditions: with parS DNA site
Over roughly 81,000 sequences, “one-hybrid fitness for binding parS DNA” has its median near -0.17; the highest 2% begin near 0.51. The sample as a whole holds a higher share of the highest values than the screen did.
In this section we review reported one-hybrid fitness for binding parS DNA values for a set of variants.

Some variants with recorded one-hybrid fitness for binding parS DNA:
   sequence_variant    val
0              RYPT  0.403
1              RERK  ≤ 0.2
2              WSWS  ≤ 0.2
3              RLGA  0.617
4              NGTK  ≤ 0.2

Recorded result, "RYIT" , one-hybrid fitness for binding parS DNA: 0.628

Recorded result, "RYIF" , one-hybrid fitness for binding parS DNA: ≤ 0.2

Recorded result, "RHGA" , one-hybrid fitness for binding parS DNA: 0.546

Recorded result, "CSAK" , one-hybrid fitness for binding parS DNA: ≤ 0.2

Recorded result, "DLGA" , one-hybrid fitness for binding parS DNA: ≤ 0.2

Recorded result, "RSGA" , one-hybrid fitness for binding parS DNA: 0.597
